Where do these numbers come from? They come from the Human Domainome abundance scans (Beltran et al. 2025).

B1: POU domain, class 4, transcription factor 2, residues 256 to 327; numbered along this chain, Q12837 (parent)
chain: RDLEAFAERFKQRRIKLGVTQADVGSALANLKIPGVGSLSQSTICRFESLTLSHNNMIALKPILQAWLEEAE

# Variants of: B1
# PROCEDURE TEXT: abundance fitness (aPCA) (normalised: wild type 0, dead -1); higher = more abundant; growth selection in yeast, the domain comes from the species named
# TEST CONTEXT: Homo sapiens
PARAMETER: abundance fitness
Answer field: number only, no words.

Reference set, count: 5
VARIANT | abundance fitness
I58E | -0.258
A66T | -0.096
K61W | -0.125
V24K | -0.844
N30Y | -0.183

q: Give a short answer stating reported abundance fitness for C45R .
a: -0.008

q: Give a short answer stating reported abundance fitness for T43G .
a: -0.792

q: Give a short answer stating reported abundance fitness for L28M .
a: 0.008

q: Give a short answer stating reported abundance fitness for E48S .
a: -0.644

q: Give a short answer stating reported abundance fitness for A22R .
a: -0.138

q: Give a short answer stating reported abundance fitness for I44M .
a: -0.87
